# subjectOfTest: T1, human CD3 on human T cells (Jurkat) (human, UniProt P07766 23-207; P04234 22-171; P09693 23-182)
# T1 construct: whole, on cells; also called huCD3+; cell surface CD3 on human (Jurkat) T cells
# assayMethodText: flow cytometry, Jurkat cells, 0.32 nM antibody
Answer each item with its documented MFI.

Worked cases, MFI given:
binder	result
HuL3H2 (Fab, V domains shown, Humanized Fab expressed in Expi293F; also called VL3 + VH2 humanized Fab) VH: EVQLVESGGGLVQPGGSLKLSCAASGFTFNTYAMNWVRQASGKGLEWVARIRSKYNNYATYYADSVKDRFTISRDDSKNTLYLQMNSLKTEDTAVYYCVRHGNFGNSYVSWFAYWGQGTLVTVSS VL: QAVVTQEPSLTVSPGGTVTLTCGSSTGAVTTSNYANWVQQKPGQAFRGLIGGTNKRAPWTPARFSGSLLGGKAALTISGAQPEDEAEYYCALWYSNLWVFGGGTKLTVL	600
HuL9H2 (Fab, V domains shown, Humanized Fab expressed in Expi293F; also called VL9 + VH2 humanized Fab) VH: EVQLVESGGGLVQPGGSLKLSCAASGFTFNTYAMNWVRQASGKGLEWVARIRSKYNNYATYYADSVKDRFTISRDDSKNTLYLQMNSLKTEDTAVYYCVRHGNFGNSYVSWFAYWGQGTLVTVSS VL: QAVVTQEPSLTVSPGGTVTLTCGSSTGAVTTSNYANWVQQKPGQAFRGLIGGTNKRAPGVPDRFSGSLLGGKAALTISGAQPEDEAEYYCALWYSNLWVFGGGTKLTVL	637

Would you kindly look at the next entry?
**Query** Quick one: MFI of HuL4H2 (Fab, V domains shown, Humanized Fab expressed in Expi293F; also called VL4 + VH2 humanized Fab) VH: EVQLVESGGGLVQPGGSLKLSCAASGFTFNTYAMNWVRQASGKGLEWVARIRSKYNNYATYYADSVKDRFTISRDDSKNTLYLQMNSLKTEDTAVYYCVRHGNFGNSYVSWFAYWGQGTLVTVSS VL: QAVVTQEPSLTVSPGGTVTLTCGSSTGAVTTSNYANWVQQKPGQAFRGLIYGTNKRAPWTPARFSGSLLGDKAALTISGAQPEDEAEYYCALWYSNLWVFGGGTKLTVL ?
**Result** 599
